# assay.target: human somatostatin receptor subtype SSTR1 (human) (UniProt P30872)
# Sequence (P30872 whole entry): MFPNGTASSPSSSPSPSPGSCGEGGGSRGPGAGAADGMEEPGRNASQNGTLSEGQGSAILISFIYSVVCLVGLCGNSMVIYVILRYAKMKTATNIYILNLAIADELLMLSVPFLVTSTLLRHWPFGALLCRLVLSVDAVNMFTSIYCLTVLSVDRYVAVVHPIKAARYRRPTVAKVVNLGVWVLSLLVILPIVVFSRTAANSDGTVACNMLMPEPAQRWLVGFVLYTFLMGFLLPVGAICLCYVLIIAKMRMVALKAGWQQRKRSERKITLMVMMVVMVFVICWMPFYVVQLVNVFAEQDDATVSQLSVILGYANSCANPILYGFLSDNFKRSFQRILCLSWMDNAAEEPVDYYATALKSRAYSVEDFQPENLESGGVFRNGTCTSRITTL
# assay: FACS, transfected HEK-293 cells; row normalised to highest
*1 amine or outer side, *2 acyl side, *3 side chain or, on linkers, in order; H or OH if unused. Bridges are numbered along the chain shown (N, C = ends). Primed or numbered codes have the meaning given here. [ ]: non-standard residue; d: D form. N(2-mercaptoethyl)Gly = O=C(CN(CCS[*:3])[*:1])[*:2]; FITC′ = fluorescein isothiocyanate; Orn = NCCC[C@H](N)C(=O)O; Aib = CC(C)(N)C(=O)O; GABA = NCCCC(=O)O
recorded.endpoint: Adjusted binding affinity

{FITC′-GABA}-[dF]CRFF[dW]KTF[N(2-mercaptoethyl)Gly]-NH2 (disulfide 2-10) [Compound 8] ... 0.08
{FITC′-GABA}-[dF]RCY[dW]KTF[N(2-mercaptoethyl)Gly]-NH2 (disulfide 3-9) [Compound 6] ... 0
{FITC′-GABA}-[dF]RCF[dW][Orn]TF[N(2-mercaptoethyl)Gly]-NH2 (disulfide 3-9) [Compound 5] ... 0
{FITC′-GABA}-[dF]CYW[dW]KTF[N(2-mercaptoethyl)Gly]-NH2 (disulfide 2-9) [Compound 4] ... 0.13
XCFWXXTFX (FITC-GABA-DPhe-Cys*-Phe-Trp-DTrp-HomoLys-Thr-Phe-GlyS2*-NH2 (* = S-S bond; HomoLys = homolysine; GlyS2 = N-thioethyl glycine; C-terminal amide)) [Compound 16] ... 0

a. {FITC′-GABA}-[dF]CFW[dW][Aib]TF[N(2-mercaptoethyl)Gly]-NH2 (disulfide 2-9) [Compound 13]
b. {FITC′-GABA}-[dF]RCF[dW]KTF[N(2-mercaptoethyl)Gly]-NH2 (disulfide 3-9) [Compound 2]
Query: Lowest Adjusted binding affinity? choose a or b Please indicate the selected item by its label.
Response: a
(a: 0.11, b: 1)
